EC50 for assorted molecules
target: UniProt Q03181; assay: Cellular transactivation assay (luciferase reporter); conditions: CHO cells stably expressing GAL4-PPARδ chimera and luciferase reporter; 24 hours stimulation
Sequence (Q03181 with tags, fused parts or gaps limits assumed): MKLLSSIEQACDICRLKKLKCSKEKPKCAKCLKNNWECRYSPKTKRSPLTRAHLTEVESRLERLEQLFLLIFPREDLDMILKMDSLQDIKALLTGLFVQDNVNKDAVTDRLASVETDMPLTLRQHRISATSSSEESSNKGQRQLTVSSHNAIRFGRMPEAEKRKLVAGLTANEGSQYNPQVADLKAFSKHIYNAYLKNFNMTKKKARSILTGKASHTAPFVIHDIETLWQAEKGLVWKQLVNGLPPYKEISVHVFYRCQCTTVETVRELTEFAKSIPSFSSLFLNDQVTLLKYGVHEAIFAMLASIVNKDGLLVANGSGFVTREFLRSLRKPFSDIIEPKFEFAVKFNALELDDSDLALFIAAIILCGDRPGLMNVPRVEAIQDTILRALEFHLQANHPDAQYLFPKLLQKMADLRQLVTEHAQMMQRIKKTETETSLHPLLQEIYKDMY

Let me check: CC(C)(Oc1ccc(CN(CC(=O)Nc2ccc(Cl)cc2Cl)C2CCCC2)cc1)C(=O)O , system UniProt Q03181, measured EC50 is 1 to 100 nM

Note to self: EC50 of Cc1cc(CN(CC(=O)Nc2ccc(Cl)cc2Cl)C2CCCC2)ccc1OC(C)C(=O)O (stereo not drawn) with UniProt Q03181 was 1 to 100 nM

// below: EC50 requested for another molecule
Entry Cc1cc(CN(CC(=O)Nc2ccc(Cl)cc2Cl)C2CCCCC2)ccc1OCC(=O)O ; assay system UniProt Q03181; EC50 recorded at 1 to 100 nM
